- subjectOfTest: UniProt:P41597
- Sequence (P41597 whole entry): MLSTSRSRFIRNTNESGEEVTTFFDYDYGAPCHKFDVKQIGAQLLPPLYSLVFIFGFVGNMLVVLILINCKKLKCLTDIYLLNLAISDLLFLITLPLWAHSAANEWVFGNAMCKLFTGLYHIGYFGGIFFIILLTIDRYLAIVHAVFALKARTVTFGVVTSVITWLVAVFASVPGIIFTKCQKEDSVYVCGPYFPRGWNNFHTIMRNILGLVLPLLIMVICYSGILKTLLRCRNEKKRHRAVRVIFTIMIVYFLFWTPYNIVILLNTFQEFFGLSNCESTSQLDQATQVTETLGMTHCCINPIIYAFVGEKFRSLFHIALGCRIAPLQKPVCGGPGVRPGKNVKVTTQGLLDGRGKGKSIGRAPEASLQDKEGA
- Assay type: cell membranes, CHO-K1, Membrane
- settings: read-out: Ki

sampleSmiles: COC(=O)C1=C(C)NC(C)=C(C(=O)OC)C1c1ccccc1[N+](=O)[O-]
subjectOfTest: UniProt:P41597
Ki / nM: 847

====

- protocol: DRUGMATRIX: Phosphodiesterase PDE4 enzyme inhibition (substrate: [3H]cAMP + cAMP)
- settings: u-937; Not Active = under 50% inhibition at 10 µM

compound: CCCc1cc(=O)[nH]c(=S)[nH]1
Ki: Not Active

compound: Cc1c(-c2ccccc2)oc2c(C(=O)OCCN3CCCCC3)cccc2c1=O [FLAVOXATE]
Ki: Not Active

compound: O=C1CCc2cc(OCCCCc3nnnn3C3CCCCC3)ccc2N1
Ki: Not Active

compound: C[C@](N)(Cc1ccc(O)cc1)C(=O)O
Ki: Not Active

compound: O=C1CN=C(c2ccccc2)c2cc([N+](=O)[O-])ccc2N1
Ki: Not Active

compound: Clc1ccc(C(c2ccccc2Cl)C(Cl)Cl)cc1 (stereo not drawn)
Ki: Not Active

compound: CCC1(c2ccccc2)C(=O)NCNC1=O
Ki: Not Active

compound: Oc1cccc2cccnc12
Ki: Not Active

compound: C/C=C1\[C@H]2C=C(C)C[C@]1(N)c1ccc(=O)[nH]c1C2
Ki: Not Active

compound: N=C(N)NCCCCNC(=N)N.O=S(=O)(O)O [ARCAINE SULFATE]
Ki: Not Active

compound: CCCSc1ccc2nc(NC(=O)OC)[nH]c2c1
Ki: Not Active

compound: Oc1c(I)cc(I)c2cccnc12
Ki: Not Active

compound: CN1CCC[C@H]1c1cccnc1
Ki: Not Active

compound: CC(C)(S)[C@@H](N)C(=O)O
Ki: Not Active

compound: CC(C)(C)NCC(O)c1ccc(O)c(CO)c1 (stereo not drawn)
Ki: Not Active

compound: CN[C@H](CC(C)C)C(=O)N[C@H]1C(=O)N[C@@H](CC(N)=O)C(=O)N[C@H]2C(=O)N[C@H]3C(=O)N[C@H](C(=O)N[C@H](C(=O)O)c4cc(O)cc(O)c4-c4cc3ccc4O)[C@H](O)c3ccc(c(Cl)c3)Oc3cc2cc(c3O[C@@H]2O[C@H](CO)[C@@H](O)[C@H](O)[C@H]2O[C@H]2C[C@](C)(N)[C@H](O)[C@H](C)O2)Oc2ccc(cc2Cl)[C@H]1O
Ki: Not Active

compound: CC(CCc1ccccc1)NCC(O)c1ccc(O)c(C(N)=O)c1 (stereo not drawn)
Ki: Not Active

compound: CC1COc2c(N3CCN(C)CC3)c(F)cc3c(=O)c(C(=O)O)cn1c23 (stereo not drawn)
Ki: Not Active

compound: COc1ccc([C@@H]2Sc3ccccc3N(CCN(C)C)C(=O)[C@@H]2OC(C)=O)cc1
Ki: Not Active

compound: O=C1c2c(O)ccc(O)c2C(=O)c2c(NCCNCCO)ccc(NCCNCCO)c21
Ki: Not Active

compound: CC(=O)S[C@@H]1CC2=CC(=O)CC[C@]2(C)[C@H]2CC[C@@]3(C)[C@@H](CC[C@@]34CCC(=O)O4)[C@H]12
Ki: Not Active

compound: Nc1nc(=O)[nH]cc1F
Ki: Not Active

compound: C=C(C)[C@@H]1[C@H]2OC(=O)[C@@H]1[C@]1(O)C[C@H]3O[C@]34C(=O)O[C@H]2[C@]14C
Ki: Not Active

compound: Cn1cnc([N+](=O)[O-])c1Sc1ncnc2nc[nH]c12
Ki: Not Active

compound: CC1(C)S[C@@H]2[C@H](NC(=O)[C@H](N)c3ccc(O)cc3)C(=O)N2[C@H]1C(=O)O
Ki: Not Active

compound: CCCCCCCCCc1ccc(O)cc1
Ki: Not Active

compound: C=CC[C@@H]1/C=C(\C)C[C@H](C)C[C@H](OC)[C@H]2O[C@@](O)(C(=O)C(=O)N3CCCC[C@H]3C(=O)O[C@H](/C(C)=C/[C@@H]3CC[C@@H](O)[C@H](OC)C3)[C@H](C)[C@@H](O)CC1=O)[C@H](C)C[C@@H]2OC [TACROLIMUS ANHYDROUS]
Ki: Not Active

compound: CC1(C)[C@H]2CC[C@]1(C)C(=O)C2 [(-)-CAMPHOR]
Ki: Not Active

compound: CN1C(C(=O)Nc2ccccn2)=C(O)c2ccccc2S1(=O)=O
Ki: Not Active

compound: CC(C)(C)NCC(O)c1cc(O)cc(O)c1 (stereo not drawn)
Ki: Not Active

compound: CC1=C(/C=C/C(C)=C/C=C/C(C)=C\C(=O)O)C(C)(C)CCC1
Ki: Not Active

compound: CN(C)[C@@H]1C(O)=C(C(N)=O)C(=O)[C@@]2(O)C(O)=C3C(=O)c4c(O)cccc4[C@@](C)(O)[C@H]3C[C@@H]12
Ki: Not Active

compound: COc1c(C)c2c(c(O)c1C/C=C(\C)CCC(=O)OCCN1CCOCC1)C(=O)OC2 [MYCOPHENOLATE MOFETIL]
Ki: Not Active

These entries and their values trace back to ChEMBL document CHEMBL1909046.
